# Tested on: S. aureus DSM 20231
# Protocol notes: Bliss interaction score (quartile over a dose matrix) (fitness difference); higher = more antagonism (negative = synergy)
Exercise: state measured Bliss interaction score for each of the molecules provided.

INSERT INTO results (molecule, observed_property, readout_value) VALUES
  ('CC[C@H]1OC(=O)[C@H](C)[C@@H](O[C@H]2C[C@@](C)(OC)[C@@H](O)[C@H](C)O2)[C@H](C)[C@@H](O[C@@H]2O[C@H](C)C[C@H](N(C)C)[C@H]2O)[C@](C)(O)C[C@@H](C)C(=O)[C@H](C)[C@@H](O)[C@]1(C)O [Erythromycin] + Oc1cc(Cl)ccc1Oc1ccc(Cl)cc1Cl [Triclosan]', 'Bliss interaction score', -0.0265);

Tell me its Bliss interaction score given CN[C@@H]1[C@H](O[C@H]2[C@H](O[C@H]3[C@H](O)[C@@H](O)[C@H](N=C(N)N)[C@@H](O)[C@@H]3N=C(N)N)O[C@@H](C)[C@]2(O)C=O)O[C@@H](CO)[C@H](O)[C@H]1O [Streptomycin] + COc1cc(Cc2cnc(N)nc2N)cc(OC)c1OC [Trimethoprim] as the entry.
-0.0639

----------
# Test system: B. subtilis 168;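 further: OD595 on entry to stationary phase over no-drug wells; at most 1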
# Protocol notes: fitness (endpoint OD595 vs no drug) (fraction); higher = more growth
# Condition: first compound 0.5 µg/mL; partner 2 µg/mL; one replicate
Please go through the items and note down their fitness.

Completed entries (count: 3):
INSERT INTO measurements (compound, observed_property, readout_value) VALUES
  ('CC(=O)NC[C@H]1CN(c2ccc(N3CCOCC3)c(F)c2)C(=O)O1 [Linezolid] + COc1cc(Cc2cnc(N)nc2N)cc(OC)c1OC [Trimethoprim]', 'fitness', 0.0328),
  ('CO[C@@H]1[C@@H](OC(N)=O)[C@@H](O)[C@H](Oc2ccc3c(O)c(NC(=O)c4ccc(O)c(CC=C(C)C)c4)c(=O)oc3c2C)OC1(C)C [Novobiocin] + CN[C@@H]1[C@H](O)[C@H](NC)[C@H]2O[C@@]3(O)C(=O)C[C@@H](C)O[C@H]3O[C@@H]2[C@H]1O [Spectinomycin]', 'fitness', 0.526),
  ('CO[C@@H]1[C@@H](OC(N)=O)[C@@H](O)[C@H](Oc2ccc3c(O)c(NC(=O)c4ccc(O)c(CC=C(C)C)c4)c(=O)oc3c2C)OC1(C)C [Novobiocin] + CN[C@@H]1[C@H](O[C@H]2[C@H](O[C@H]3[C@H](O)[C@@H](O)[C@H](N=C(N)N)[C@@H](O)[C@@H]3N=C(N)N)O[C@@H](C)[C@]2(O)C=O)O[C@@H](CO)[C@H](O)[C@H]1O [Streptomycin]', 'fitness', 0.592);

As a next step, examine the compound that follows.
Report fitness from B. subtilis 168 testing of CO[C@@H]1[C@@H](OC(N)=O)[C@@H](O)[C@H](Oc2ccc3c(O)c(NC(=O)c4ccc(O)c(CC=C(C)C)c4)c(=O)oc3c2C)OC1(C)C [Novobiocin] + Cc1cc(NS(=O)(=O)c2ccc(N)cc2)no1 [Sulfamethoxazol]
0.507

----------
I'd be grateful if you could share measured Bliss interaction score for these entries.
# Test system: S. pneumoniae D39V
# Protocol notes: Bliss interaction score (quartile over a dose matrix) (fitness difference); higher = more antagonism (negative = synergy)
Give bare numbers.

Answered examples (2):
INSERT INTO measurements (compound, observed_property, readout_value) VALUES
  ('CN[C@@H]1[C@H](O)[C@H](NC)[C@H]2O[C@@]3(O)C(=O)C[C@@H](C)O[C@H]3O[C@@H]2[C@H]1O [Spectinomycin] + CN(C)c1cc(NC(=O)CNC(C)(C)C)c(O)c2c1C[C@H]1C[C@H]3[C@H](N(C)C)C(O)=C(C(N)=O)C(=O)[C@@]3(O)C(O)=C1C2=O [Tigecycline]', 'Bliss interaction score', 0.0451),
  ('CC[C@H]1OC(=O)[C@H](C)[C@@H](O[C@H]2C[C@@](C)(OC)[C@@H](O)[C@H](C)O2)[C@H](C)[C@@H](O[C@@H]2O[C@H](C)C[C@H](N(C)C)[C@H]2O)[C@](C)(O)C[C@@H](C)C(=O)[C@H](C)[C@@H](O)[C@]1(C)O [Erythromycin] + CC(=O)O[C@H]1C[C@@]2(C)[C@@H](C[C@@H](O)[C@H]3[C@@]4(C)CC[C@@H](O)[C@@H](C)[C@@H]4CC[C@@]32C)/C1=C(\CCC=C(C)C)C(=O)O [Fusidic acid]', 'Bliss interaction score', -0.1);

Read off the recorded Bliss interaction score for CO[C@@H]1[C@@H](OC(N)=O)[C@@H](O)[C@H](Oc2ccc3c(O)c(NC(=O)c4ccc(O)c(CC=C(C)C)c4)c(=O)oc3c2C)OC1(C)C [Novobiocin] + Oc1cc(Cl)ccc1Oc1ccc(Cl)cc1Cl [Triclosan]
0.177
